Each recorded value in this set is attributed to patent US8497245B2.

Ki reference
- SYSTEM: Human urinary kallikrein (h uKK) (Homo sapiens)
- Sequence (P06870 25-262): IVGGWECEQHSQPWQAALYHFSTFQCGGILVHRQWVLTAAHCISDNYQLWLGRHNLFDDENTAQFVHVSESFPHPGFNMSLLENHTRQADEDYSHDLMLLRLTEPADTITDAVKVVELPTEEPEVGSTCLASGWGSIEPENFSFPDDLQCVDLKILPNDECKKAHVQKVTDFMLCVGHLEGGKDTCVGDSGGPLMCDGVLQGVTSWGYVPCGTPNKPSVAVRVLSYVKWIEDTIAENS
Structures can show the parent of a compound that is named as a salt.

{"columns": ["COMPOUND", "MEASUREMENT_TYPE", "ASSAY_RESULT"],
 "data": [
  ["O=C(NCc1cc(Cl)ccc1-n1cnnn1)[C@@H]1C[C@H](O)CN1C(=O)[C@@H](CCC(=O)N1CCOCC1)NS(=O)(=O)Cc1ccccc1 [Compound 2.21]", "Ki", "> 100 µM"],
  ["NCc1ccc(Cl)cc1CNC(=O)[C@@H]1CCCN1C(=O)[C@@H](CC(=O)O)NS(=O)(=O)Cc1ccccc1 [Compound 2.46]", "Ki", "> 20 µM"],
  ["NCc1ccc(Cl)cc1CNC(=O)[C@@H]1CCCCN1C(=O)[C@@H](CCC(=O)N1CCOCC1)NS(=O)(=O)Cc1ccccc1 [Compound 2.15]", "Ki", "> 10 µM"],
  ["NCc1ccc(Cl)cc1CNC(=O)[C@@H]1C[C@@H](N)CN1C(=O)[C@@H](CC(=O)N1CCNCC1)NS(=O)(=O)Cc1ccccc1 [Compound 2.5]", "Ki", "> 100 µM"]
]}

Please give the documented Ki of NCc1ccc(Cl)cc1CNC(=O)[C@@H]1C[C@H](N)CN1C(=O)[C@@H](CC(=O)N1CCCCC1)NS(=O)(=O)Cc1ccccc1 [Compound 2.6] > 50 µM

Please give the documented Ki of NCc1ccc(Cl)cc1CNC(=O)[C@@H]1CCCN1C(=O)[C@@H](CCC(=O)N1CCOCC1)NS(=O)(=O)Cc1ccccc1 [Compound 2.1, TFA] > 60 µM

Please give the documented Ki of CC(=O)N1CCC(N(C)C(=O)C[C@@H](NS(=O)(=O)Cc2ccccc2)C(=O)N2CCC[C@H]2C(=O)NCc2cc(Cl)ccc2CN)CC1 [Compound 2.2] > 10 µM

Please give the documented Ki of CN1CCN(C(=O)C[C@@H](NS(=O)(=O)Cc2ccccc2)C(=O)N2CCC[C@H]2C(=O)NCc2cc(Cl)ccc2CN)CC1 [Compound 2.18] > 20 µM

Please give the documented Ki of O=C(NCc1cc(Cl)ccc1-n1cnnn1)[C@@H]1CCCN1C(=O)[C@@H](CCC(=O)N1CCOCC1)NS(=O)(=O)Cc1ccccc1 [Compound 2.20] > 50 µM

Please give the documented Ki of NCc1ccc(Cl)cc1CNC(=O)[C@@H]1CCCN1C(=O)[C@H](N)CCC(=O)N1CCOCC1 [Compound 2.49, TFA] > 100 µM

Please give the documented Ki of NCc1ccc(Cl)cc1CNC(=O)[C@@H]1CCCN1C(=O)[C@@H](CCC(=O)N1CCNCC1)NS(=O)(=O)Cc1ccccc1 [Compound 2.31] > 100 µM

Please give the documented Ki of NCc1ccc(Cl)cc1CNC(=O)[C@@H]1CCN1C(=O)[C@@H](CCC(=O)N1CCOCC1)NS(=O)(=O)Cc1ccccc1 [Compound 2.43] > 10 µM

Please give the documented Ki of NCc1ccc(Cl)cc1CNC(=O)[C@@H]1CCCN1C(=O)[C@@H](CC(=O)N1CC[C@H](N)C1)NS(=O)(=O)Cc1ccccc1 [Compound 2.12] > 20 µM

Please give the documented Ki of NCc1ccc(Cl)cc1CNC(=O)[C@@H]1C[C@H](N)CN1C(=O)[C@@H](CCC(=O)N1CCOCC1)NS(=O)(=O)Cc1ccccc1 [Compound 2.24] > 50 µM

Please give the documented Ki of NCc1ccc(Cl)cc1CNC(=O)[C@@H]1CCCN1C(=O)[C@@H](CC(=O)Nc1cc[n+]([O-])cc1)NS(=O)(=O)Cc1ccccc1 [Compound 2.48] > 100 µM

Please give the documented Ki of NCc1ccc(Cl)cc1CNC(=O)[C@@H]1CCCN1C(=O)[C@@H](CCC(=O)N1CCC(N)CC1)NS(=O)(=O)Cc1ccccc1 [Compound 2.32] > 10 µM

Please give the documented Ki of NCc1ccc(Cl)cc1CNC(=O)[C@@H]1CCCN1C(=O)[C@@H](CC(=O)N1CC[C@H](O)C1)NS(=O)(=O)Cc1ccccc1 [Compound 2.10] > 100 µM

Please give the documented Ki of CN(C(=O)C[C@@H](NS(=O)(=O)Cc1ccccc1)C(=O)N1CCC[C@H]1C(=O)NCc1cc(Cl)ccc1CN)C1CCNCC1 [Compound 2.3] > 50 µM

* * *

Observed Ki, system Human urokinase type plasminogen activator (h u-PA) (Homo sapiens).

{"columns": ["COMPOUND_SMILES", "SYSTEM", "MEASUREMENT_TYPE", "ASSAY_RESULT"],
 "data": [
  ["NCc1ccc(Cl)cc1CNC(=O)[C@@H]1CCCCN1C(=O)[C@@H](CC(=O)N1CCOCC1)NS(=O)(=O)Cc1ccccc1", "Human urokinase type plasminogen activator (h u-PA) (Homo sapiens)", "Ki", "> 50 µM"]
]}

State measured Ki of the compound CC(=O)N1CCC(CN(C)C(=O)C[C@@H](NS(=O)(=O)Cc2ccccc2)C(=O)N2CCC[C@H]2C(=O)NCc2cc(Cl)ccc2CN)CC1 with Human urokinase type plasminogen activator (h u-PA) (Homo sapiens). > 40 µM

State measured Ki of the compound CN(CC1CCNCC1)C(=O)C[C@@H](NS(=O)(=O)Cc1ccccc1)C(=O)N1CCC[C@H]1C(=O)NCc1cc(Cl)ccc1CN with Human urokinase type plasminogen activator (h u-PA) (Homo sapiens). > 100 µM

* * *

Where a name gives a salt, the structure may show the parent alone.
Observed Ki, system human factor IIa (human alpha-thrombin) (Homo sapiens, UniProt P00734).
# unit: nM | format: bare number

Previously resolved entries follow.
{"columns": ["MOLECULE", "Ki [nM]"],
 "data": [
  ["O=C(NCc1cc(Cl)ccc1-n1cnnn1)[C@@H]1C[C@H](O)CN1C(=O)[C@@H](CCC(=O)N1CCOCC1)NS(=O)(=O)Cc1ccccc1", 159],
  ["CN(C(=O)C[C@@H](NS(=O)(=O)Cc1ccccc1)C(=O)N1CCC[C@H]1C(=O)NCc1cc(Cl)ccc1CN)C1CCOCC1", 0.56],
  ["NCc1ccc(Cl)cc1CNC(=O)[C@@H]1CCCN1C(=O)[C@@H](CC(=O)N1CCSCC1)NS(=O)(=O)Cc1ccccc1", 0.49],
  ["NCc1ccc(Cl)cc1CNC(=O)[C@@H]1CCCN1C(=O)[C@@H](CC(=O)N1CCS(=O)(=O)CC1)NS(=O)(=O)Cc1ccccc1", 18.6],
  ["NCc1ccc(Cl)cc1CNC(=O)[C@@H]1CCCN1C(=O)[C@@H](CCC(=O)N1CCOCC1)NS(=O)(=O)Cc1ccccc1 [Compound 2.1, TFA]", 0.43]
]}

Please give the documented Ki of NCc1ccc(Cl)cc1CNC(=O)[C@@H]1CCCCN1C(=O)[C@@H](CCC(=O)N1CCOCC1)NS(=O)(=O)Cc1ccccc1 0.7

Please give the documented Ki of NCc1ccc(Cl)cc1CNC(=O)[C@@H]1CCCN1C(=O)[C@@H](CC(=O)O)NS(=O)(=O)Cc1ccccc1 12.2

Please give the documented Ki of NCc1ccc(Cl)cc1CNC(=O)[C@@H]1CCN1C(=O)[C@@H](CC(=O)N1CCCCC1)NS(=O)(=O)Cc1ccccc1 0.72

* * *

- SYSTEM: Human Activated Protein C (h aPC) (Homo sapiens, UniProt P04070)
- Sequence (P04070 212-450 limits assumed): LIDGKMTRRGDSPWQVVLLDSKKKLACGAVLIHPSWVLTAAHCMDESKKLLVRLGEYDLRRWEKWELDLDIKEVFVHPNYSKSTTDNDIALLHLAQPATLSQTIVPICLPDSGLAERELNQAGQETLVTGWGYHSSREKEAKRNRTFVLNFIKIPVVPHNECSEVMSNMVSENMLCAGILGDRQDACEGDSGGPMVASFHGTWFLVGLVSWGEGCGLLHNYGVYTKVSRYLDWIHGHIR
- Sequence (P04070 43-197 partner limits assumed): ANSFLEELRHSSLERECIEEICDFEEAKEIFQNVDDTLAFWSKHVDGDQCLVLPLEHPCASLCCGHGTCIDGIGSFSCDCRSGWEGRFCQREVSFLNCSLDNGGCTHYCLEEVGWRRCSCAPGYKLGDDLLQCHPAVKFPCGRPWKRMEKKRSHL
- METHOD: Inhibition of human activated protein C (reference enzyme)
- ASSAY_CONTEXT: Pefachrome PCa substrate
- Procedure: The inhibitory effect against the individual purified enzymes was determined in analogy to a previously disclosed method (Stürzebecher et al., J. Med. Chem., 40, 3091-3099 (1997)). The release of p-nitroaniline (p-NA, the chromogenic product of the proteolytic activity), was determined by change in absorbance at 405 nm. […] Dissociation constants were calculated as described herein.
pKi: −log10 of the molar value.
MEASUREMENT_TYPE: pKi

{"columns": ["COMPOUND", "ASSAY_RESULT"],
 "data": [
  ["NCc1ccc(Cl)cc1CNC(=O)[C@@H]1CCCN1C(=O)[C@@H](CCC(=O)N1CCOCC1)NC(=O)OCc1ccccc1 [Compound 2.33]", "< 4.52"]
]}

Please give the documented pKi of CN(C(=O)C[C@@H](NS(=O)(=O)Cc1ccccc1)C(=O)N1CCC[C@H]1C(=O)NCc1cc(Cl)ccc1CN)C1CCOCC1 [Compound 2.4] < 5.00

Please give the documented pKi of CC(=O)N1CCN(C(=O)C[C@@H](NS(=O)(=O)Cc2ccccc2)C(=O)N2CCC[C@H]2C(=O)NCc2cc(Cl)ccc2CN)CC1 [Compound 2.40] < 4.00

* * *

pKi reference
- SYSTEM: Human Activated Protein C (h aPC) (Homo sapiens, UniProt P04070)
- Construct: purchased Enzyme Research Laboratories
- METHOD: Inhibition of human activated protein C (reference enzyme)
- Type: biochemical
- ASSAY_CONTEXT: Pefachrome PCa substrate
- Procedure: The inhibitory effect against the individual purified enzymes was determined in analogy to a previously disclosed method (Stürzebecher et al., J. Med. Chem., 40, 3091-3099 (1997)). The release of p-nitroaniline (p-NA, the chromogenic product of the proteolytic activity), was determined by change in absorbance at 405 nm. […] Dissociation constants were calculated as described herein.
pKi: −log10 of the molar value.

Previously resolved entries follow.
{"columns": ["COMPOUND_SMILES", "pKi"],
 "data": [
  ["CC(=O)N1CCC(CN(C)C(=O)C[C@@H](NS(=O)(=O)Cc2ccccc2)C(=O)N2CCC[C@H]2C(=O)NCc2cc(Cl)ccc2CN)CC1", "< 4.40"],
  ["NCc1ccc(Cl)cc1CNC(=O)[C@@H]1CCCN1C(=O)[C@@H](CC(=O)O)NS(=O)(=O)Cc1ccccc1", "< 4.40"]
]}

# next compound below
Please give the documented pKi of CC(=O)N1CCC(N(C)C(=O)C[C@@H](NS(=O)(=O)Cc2ccccc2)C(=O)N2CCC[C@H]2C(=O)NCc2cc(Cl)ccc2CN)CC1 < 4.05
